- Test system: Dd2
- assay-summary: Cross-resistance EC50 assay, Dd2 parent
- Type: cell-based, Plasmodium falciparum
- condition-summary: Plasmodium falciparum, DD2, 72 h, read-out: Dd2 (PARENT) Average EC50
recorded-endpoint: pEC50
Reminder that pEC50 means the negative base-10 logarithm of the concentration expressed in mol/L.

compound | target-or-system | pEC50
Nc1ccc(-c2nc3cc(Cc4ccc5[nH]c(-c6ccc(N)cc6)nc5c4)ccc3[nH]2)cc1 | Dd2 | 6.39
COc1ccc2c3c([nH]c2c1)[C@H](CO)N(C(C)=O)CC31CCN(C(=O)Nc2ccccc2F)CC1 | Dd2 | 7.15
COCCNCC(O)Cn1c2ccc(Cl)cc2c2cc(Cl)ccc21 (stereo not shown) | Dd2 | 6.32
Cc1cc(Nc2ccc(OCc3ccccc3)cc2)nc2cc(O)ccc12 | Dd2 | 6.73
COc1cc(C(=O)ON=C(N)Cc2cccc3ccccc23)cc(OC)c1OC | Dd2 | 6.50
COc1ccccc1CNC(=O)CCn1c(=O)[nH]c2ccsc2c1=O | Dd2 | 7.27
CC(C)c1cccc(C(NC(=O)C2Cc3ccccc3CN2C(=O)c2cccc(N3CCOCC3)c2)C2CCCC2)c1 (stereo not shown) | Dd2 | 6.52
Nc1ccc(-c2nc3cc(Oc4ccc(Oc5ccc6[nH]c(-c7ccc(N)cc7)nc6c5)cc4)ccc3[nH]2)cc1 | Dd2 | 6.59
CCCN(CCC)CC(O)COc1ccccc1C(=O)Nc1ccccc1 (stereo not shown) | Dd2 | 5.92
CCN(CC)CCn1c(=N)n(CC(O)c2ccc(Cl)c(Cl)c2)c2ccccc21.Cl (stereo not shown) | Dd2 | 6.37

Inquiry: Field request: pEC50 | item: O=C(NC(c1ccccc1)c1ccc2cccnc2c1O)c1ccccc1 (stereo not shown)
Reply text: 6.37

Inquiry: Field request: pEC50 | item: CN1CCN(c2ccc(Nc3c4ccccc4nc4ccccc34)cc2)CC1
Reply text: 6.77
